target: Receptor-type tyrosine-protein phosphatase F (Homo sapiens); test: Inhibition of human recombinant LAR expressed in Escherichia coli TB1 using p-nitrophenyl phosphate as substrate after 1 hr
Sequence (P10586 whole entry): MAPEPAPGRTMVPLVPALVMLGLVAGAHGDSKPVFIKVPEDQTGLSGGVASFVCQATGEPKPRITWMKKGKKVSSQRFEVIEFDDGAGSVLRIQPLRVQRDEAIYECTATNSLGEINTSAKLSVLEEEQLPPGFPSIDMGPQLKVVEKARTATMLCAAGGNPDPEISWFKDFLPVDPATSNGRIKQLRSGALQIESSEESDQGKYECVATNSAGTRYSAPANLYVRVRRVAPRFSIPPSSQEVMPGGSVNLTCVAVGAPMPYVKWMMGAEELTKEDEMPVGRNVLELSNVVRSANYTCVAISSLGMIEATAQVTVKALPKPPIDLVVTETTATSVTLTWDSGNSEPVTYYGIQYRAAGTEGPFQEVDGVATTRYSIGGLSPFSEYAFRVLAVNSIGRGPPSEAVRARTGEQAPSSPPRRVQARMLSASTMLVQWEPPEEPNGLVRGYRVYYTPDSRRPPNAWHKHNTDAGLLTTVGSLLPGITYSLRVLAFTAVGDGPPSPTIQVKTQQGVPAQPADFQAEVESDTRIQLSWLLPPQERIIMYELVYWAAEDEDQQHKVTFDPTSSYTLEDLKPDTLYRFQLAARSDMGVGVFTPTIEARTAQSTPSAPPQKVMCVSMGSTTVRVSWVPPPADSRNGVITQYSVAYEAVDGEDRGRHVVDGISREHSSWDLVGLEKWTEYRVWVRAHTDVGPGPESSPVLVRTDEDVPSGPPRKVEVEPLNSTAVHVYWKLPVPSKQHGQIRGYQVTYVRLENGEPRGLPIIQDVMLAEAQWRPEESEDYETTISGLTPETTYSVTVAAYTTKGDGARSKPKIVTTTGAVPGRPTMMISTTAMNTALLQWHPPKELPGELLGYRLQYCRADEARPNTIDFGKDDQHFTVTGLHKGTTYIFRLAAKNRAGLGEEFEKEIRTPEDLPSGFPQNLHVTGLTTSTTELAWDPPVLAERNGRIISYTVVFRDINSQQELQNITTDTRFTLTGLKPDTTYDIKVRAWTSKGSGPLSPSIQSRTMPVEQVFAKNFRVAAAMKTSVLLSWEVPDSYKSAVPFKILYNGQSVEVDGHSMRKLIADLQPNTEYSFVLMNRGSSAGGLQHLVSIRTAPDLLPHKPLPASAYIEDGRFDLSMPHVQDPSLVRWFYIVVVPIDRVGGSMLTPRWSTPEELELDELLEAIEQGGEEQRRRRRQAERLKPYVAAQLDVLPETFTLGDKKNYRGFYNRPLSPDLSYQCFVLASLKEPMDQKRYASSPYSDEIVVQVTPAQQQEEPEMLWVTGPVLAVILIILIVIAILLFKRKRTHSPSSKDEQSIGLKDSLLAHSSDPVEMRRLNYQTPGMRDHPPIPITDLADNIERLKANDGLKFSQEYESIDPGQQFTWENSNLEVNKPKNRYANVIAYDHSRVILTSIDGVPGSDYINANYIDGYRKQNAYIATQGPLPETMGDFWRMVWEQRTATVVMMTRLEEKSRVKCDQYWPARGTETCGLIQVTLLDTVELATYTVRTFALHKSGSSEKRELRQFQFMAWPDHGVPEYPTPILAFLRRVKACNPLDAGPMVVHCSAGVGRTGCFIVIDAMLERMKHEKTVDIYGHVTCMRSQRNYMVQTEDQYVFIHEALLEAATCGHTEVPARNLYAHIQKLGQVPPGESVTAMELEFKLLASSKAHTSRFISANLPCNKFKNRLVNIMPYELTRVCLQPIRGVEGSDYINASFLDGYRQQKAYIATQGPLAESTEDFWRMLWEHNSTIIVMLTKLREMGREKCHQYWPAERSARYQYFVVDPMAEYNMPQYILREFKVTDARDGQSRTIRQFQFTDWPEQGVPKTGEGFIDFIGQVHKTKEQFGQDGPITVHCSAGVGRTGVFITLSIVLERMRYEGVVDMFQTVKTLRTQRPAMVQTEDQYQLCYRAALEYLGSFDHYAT
pIC50: −log10 of the molar value.
PROPERTY_LABEL: pIC50

Solved cases (2 shown):
COMPOUND	SYSTEM_UNDER_TEST	RESULT_NUMBER
CC1(C)CC[C@]2(C(=O)O)CC[C@]3(C)C(=CC[C@@H]4[C@@]5(C)CC[C@H](O)C(C)(C)[C@@H]5CC[C@]43C)[C@@H]2C1 [OLEANOLIC_ACID]	Receptor-type tyrosine-protein phosphatase F (Homo sapiens)	4.93
CC1(C)C=C2[C@H]3CC[C@@H]4[C@@]5(C)CC[C@H](O)C(C)(C)[C@@H]5CC[C@@]4(C)[C@]3(C)CC[C@@]2(C(=O)O)CC1 [MOROLIC ACID]	Receptor-type tyrosine-protein phosphatase F (Homo sapiens)	4.44

[I] CC1(C)C=C2[C@H]3CC[C@@H]4[C@@]5(C)CCC(=O)C(C)(C)[C@@H]5CC[C@@]4(C)[C@]3(C)CC[C@@]2(C(=O)O)CC1 [MORONIC ACID]
[II] C[C@H]1[C@H](C)CC[C@]2(C(=O)O)CC[C@]3(C)C(=CC[C@@H]4[C@@]5(C)CC[C@H](O)C(C)(C)[C@@H]5CC[C@]43C)[C@H]12 [URSOLIC ACID]
Prompt: Which gives the smaller pIC50 number: I or II ? Your answer should be the label of the entry you select.
Response: I
(I: 4.34, II: 5.42)
